Target or system Acyl-CoA desaturase 1 (Mus musculus, UniProt P13516); metric IC50; compiled from varied reports.
Give bare numbers, in nM.

Check out these entries, answers already filled in.
Enquiry: Give the measured IC50 of Cc1nc(-c2ccn(Cc3ccc(C#N)cc3)n2)sc1C(=O)NCc1cccnc1 .
Return: 74

Enquiry: Give the measured IC50 of Cc1nc(-c2cncc(N(C)Cc3ccc(F)cc3)n2)sc1C(=O)NCc1ccccc1 .
Return: 124

Enquiry: Give the measured IC50 of Cc1nc(-c2ccn(CCCc3ccccc3)n2)sc1C(=O)NCc1ccccc1 .
Return: 71

For every record below, what is its IC50?
1. Cc1cccc(C)c1OCc1ccc(-c2cc(C(N)=O)on2)cc1
2. Cn1cnc(CNC(=O)c2ccnc(N3CCN(Cc4ccc(F)cc4)C3=O)c2)c1
3. Cc1nc(N2CCN(CC3CCCCO3)C2=O)sc1C(=O)NCc1ccccc1 (centres unmarked)

Return:
1900
190
495

----------
Target or system Acyl-CoA desaturase 1 (Mus musculus, UniProt P13516); metric pIC50; compiled from varied reports.
Answers are plain numbers, as −log10 of the molar value.

Check out these entries, answers already filled in.
Enquiry: Give the measured pIC50 of N#Cc1ccccc1COc1ccc(-c2cc(C(N)=O)on2)cc1 .
Return: 6.01

Enquiry: Give the measured pIC50 of COc1ccn(-c2nc(C)c(C(=O)NCc3ccccc3)s2)c(=O)c1 .
Return: 7.05

New cases:
Enquiry: Give the measured pIC50 of Cc1nc(-c2sc(N3CCN(Cc4ccc(OC(F)(F)F)cc4)C3=O)nc2C)n[nH]1 .
Return: 6.92

----------
Target or system UniProt P13516; metric IC50; compiled from varied reports.
Numbers only, in nM.

Check out these entries, answers already filled in.
Enquiry: Give the measured IC50 of O=C(NCc1nccs1)c1ccnc(N2CCN(Cc3ccc(C(F)(F)F)cc3)C2=O)c1 .
Return: 10

Enquiry: Give the measured IC50 of Cc1cc(CNC(=O)c2cc(-n3cnn(Cc4ccc(F)cc4)c3=O)n[nH]2)no1 .
Return: 22

Enquiry: Give the measured IC50 of Cc1nc(-c2ccn(CCC3CC3)n2)sc1C(=O)NCc1ccc(F)cc1 .
Return: 147

Enquiry: Give the measured IC50 of Cc1cc(-c2n[nH]c(Cc3ccccc3)n2)sc1C(=O)NCc1cccnc1 .
Return: 300

Enquiry: Give the measured IC50 of NC(=O)c1cc(-c2ccc(CN3CCc4ccccc43)cc2)no1 .
Return: 31

Enquiry: Give the measured IC50 of Cc1nc(-n2cc(CCC3CCCCC3)nn2)sc1C(=O)NCc1ccccc1 .
Return: 240

Enquiry: Give the measured IC50 of Cc1cc(CNC(=O)c2cc(N3CCN(Cc4ccc(F)cc4)C3=O)n[nH]2)no1 .
Return: 37

Enquiry: Give the measured IC50 of NC(=O)c1cc(-c2ccc(OCc3ccccc3F)cc2)no1 .
Return: 560

For every record below, what is its IC50?
1. N#Cc1ccccc1OCc1ccc(-c2cc(C(N)=O)on2)cc1
2. Cc1ccccc1COc1ccc(-c2cc(C(N)=O)on2)cc1
3. Cc1nc(-n2cnn(Cc3ccc(F)cc3)c2=O)sc1C(=O)NCc1ccc(C(F)(F)F)nc1
4. COc1ccc(CN(C)c2cncc(-c3nc(C)c(C(=O)NCc4ccc(F)cc4)s3)n2)cc1
5. O=C(NCc1cccnc1)c1cc(N2CCN(Cc3ccc(F)cc3)C2=O)n[nH]1

Return:
310
460
1720
98
3

----------
Target or system Acyl-CoA desaturase 1 (Mus musculus, UniProt P13516); metric pIC50; compiled from varied reports.
Give bare numbers, as −log10 of the molar value.

Enquiry: Give the measured pIC50 of Cc1cccnc1OCc1ccc(-c2cc(C(N)=O)on2)cc1 .
Return: 6.46

Enquiry: Give the measured pIC50 of CS(=O)(=O)c1ccccc1COc1ccc(-c2cc(C(N)=O)on2)cc1 .
Return: 5.82

Enquiry: Give the measured pIC50 of Cc1nc(-n2cnn(CC(=O)Nc3ccc(Cl)cc3)c2=O)sc1C(=O)NCc1cccnc1 .
Return: 6.24

Enquiry: Give the measured pIC50 of O=C(NCc1ccncc1)c1ccnc(N2CCN(CC3CC3)C2=O)c1 .
Return: 6.17

Enquiry: Give the measured pIC50 of Cc1ncccc1OCc1ccc(-c2cc(C(N)=O)on2)cc1 .
Return: 5.96

Enquiry: Give the measured pIC50 of NC(=O)c1cc(-n2cnn(Cc3ccc(F)cc3)c2=O)n[nH]1 .
Return: 6.31

For every record below, what is its pIC50?
1. O=C(NCc1ccccc1)c1cc(N2CCN(Cc3ccc(F)cc3)C2=O)n[nH]1
2. NC(=O)c1cc(-c2ccc(COc3ccc(Cl)cc3)cc2)no1

Return:
[7.96, 5.89]

----------
Target or system UniProt:P13516; metric IC50; compiled from varied reports.
Sorting guide: entries reporting IC50 beneath 20 nM go in the T pile, the rest go in the F pile.

Enquiry: IC50 under 20 nM? Item: O=c1cc(N2CCN(Cc3cc(Br)ccc3F)CC2)nc[nH]1
Return: F

Enquiry: IC50 under 20 nM? Item: COc1ccc(CN2CCN(c3cc(=O)[nH]cn3)CC2)c(C)c1C
Return: F

Enquiry: IC50 under 20 nM? Item: CC1Cc2ccccc2N1Cc1ccc(-c2cc(C(N)=O)on2)cc1 (stereo not drawn)
Return: F

Enquiry: IC50 under 20 nM? Item: Cc1cc(CNC(=O)c2ccnc(N3CCN(Cc4ccc(C(F)(F)F)cc4)C3=O)c2)no1
Return: T

New cases:
Enquiry: IC50 under 20 nM? Item: O=C(NCc1ccccc1)c1cc(-n2cnn(Cc3ccc(F)cc3)c2=O)n[nH]1
Return: T

Enquiry: IC50 under 20 nM? Item: O=c1cc(N2CCN(Cc3c(Cl)cccc3Cl)CC2)nc[nH]1
Return: F

Enquiry: IC50 under 20 nM? Item: NC(=O)c1cc(-c2ccc(OCc3cc(F)ccc3Cl)cc2)no1
Return: F
